- test-method-notes: Ability to cause gastro-intestinal erosion in rats
- Parameters: species or system rat (male Lai:COX (SD))
- condition-description: rat, in vivo, po
measured-quantity: NOAEL at 168 h (mg/kg/day)
Number only, in mg/kg/day; omit the unit.

In: // fetch NOAEL at 168 h given entry O=C(O)c1ccccc1Nc1cccc(C(F)(F)F)c1 [Flufenamic acid, reference compound]
Out: 35

---

Entries and their Body Wt.
- System: Experimental Allergic Encephalomyelitis in Rat
- test-method-notes: Experimental Allergic Encephalomyelitis in rat
- Assay type: in vivo, rat (female LEW/Crl BR)
- condition-description: oral 2 mg/kg daily for 16 days, day 17
Number only, in gm; omit the unit.

Please review the following examples before continuing.
CCOC(=O)Nc1cc(OC)c(OC)cc1C(=O)O    157
CCOC(=O)Nc1ccccc1C(=O)O    150
COc1cc(NC(=O)OCc2ccccc2)c(C(=O)O)cc1OC    142
Cc1cccc(N)c1C(=O)O [2-Amino-6-methylbenzoic acid, 2-amino-6-methyl-benzoic acid, reference compound]    153

Now turn to the next compound.
In: // fetch Body Wt. given entry "O=C(Nc1ccccc1C(=O)O)OCc1ccccc1"
Out: 131
